assay_summary: Oral bioavailability in ICR mouse at 10 mg/kg
Format: ADME, organism-based
measurement_context: in vivo
property_measured: bioavailability (%)

1. Cc1cc(SC(Cc2ccccc2)c2sc(-c3ccc(C(F)(F)F)cc3)nc2C)ccc1OCC(=O)O (stereo unspecified) ... 88

----------
assay_summary: Tmax in ICR mouse at 1 mg/kg, iv
Format: ADME, organism-based
Design: dose 1 mg/kg, route intravenous
measurement_context: in vivo
property_measured: Tmax (min)

1) Cc1cc(SC(Cc2ccccc2)c2sc(-c3ccc(C(F)(F)F)cc3)nc2C)ccc1OCC(=O)O (stereo unspecified) ... 19.8

----------
assay_summary: AUC in ICR mouse at 10 mg/kg, po
Assay type: ADME, organism-based
Set-up: dose 10 mg/kg, route oral
measurement_context: plasma
property_measured: AUC

1. Cc1cc(SC(Cc2ccccc2)c2sc(-c3ccc(C(F)(F)F)cc3)nc2C)ccc1OCC(=O)O (stereo unspecified) ... 357 µg·h/mL

----------
assay_summary: AUC in ICR mouse at 1 mg/kg, iv
Type: ADME, organism-based
Set-up: dose 1 mg/kg, route intravenous
measurement_context: plasma
property_measured: AUC (ng·h/mL)

1) Cc1cc(SC(Cc2ccccc2)c2sc(-c3ccc(C(F)(F)F)cc3)nc2C)ccc1OCC(=O)O (stereo unspecified) ... 40600

----------
assay_summary: Mean residence time in ICR mouse at 10 mg/kg, po
Assay type: ADME, organism-based
Design: dose 10 mg/kg, route oral
measurement_context: in vivo
property_measured: MRT (h)

1) Cc1cc(SC(Cc2ccccc2)c2sc(-c3ccc(C(F)(F)F)cc3)nc2C)ccc1OCC(=O)O (stereo unspecified) ... 9.32

----------
assay_summary: Clearance in ICR mouse at 10 mg/kg, po
Type: ADME, organism-based
Design: dose 10 mg/kg, route oral
measurement_context: in vivo
property_measured: CL/F (mL/min/kg)

1. Cc1cc(SC(Cc2ccccc2)c2sc(-c3ccc(C(F)(F)F)cc3)nc2C)ccc1OCC(=O)O (stereo unspecified) ... 0.47

----------
assay_summary: Cmax in ICR mouse at 1 mg/kg, iv
Format: ADME, organism-based
Design: dose 1 mg/kg, route intravenous
measurement_context: in vivo
property_measured: Cmax (ng/mL)

1) Cc1cc(SC(Cc2ccccc2)c2sc(-c3ccc(C(F)(F)F)cc3)nc2C)ccc1OCC(=O)O (stereo unspecified) ... 8980

----------
system_name: Peroxisome proliferator-activated receptor delta (Homo sapiens)
Sequence (Q03181 whole entry): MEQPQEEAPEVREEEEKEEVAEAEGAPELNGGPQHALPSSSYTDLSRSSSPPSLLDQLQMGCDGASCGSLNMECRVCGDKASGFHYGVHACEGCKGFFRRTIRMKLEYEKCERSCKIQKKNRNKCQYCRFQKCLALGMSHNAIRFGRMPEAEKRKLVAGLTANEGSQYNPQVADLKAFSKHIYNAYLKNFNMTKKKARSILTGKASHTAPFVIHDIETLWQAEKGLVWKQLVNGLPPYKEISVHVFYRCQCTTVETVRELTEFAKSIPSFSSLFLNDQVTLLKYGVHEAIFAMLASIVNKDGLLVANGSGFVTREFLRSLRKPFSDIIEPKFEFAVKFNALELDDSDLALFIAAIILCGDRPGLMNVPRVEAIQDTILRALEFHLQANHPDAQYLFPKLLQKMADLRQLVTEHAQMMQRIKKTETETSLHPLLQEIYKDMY
assay_summary: Transactivation activity at human PPARdelta expressed in african green monkey CV1 cells after 24 hrs by luciferase reporter gene assay
Format: cell-based, CV-1
pEC50: −log10 of the molar value.
property_measured: pEC50

1) Cc1cc(SC(Cc2c(F)cccc2F)c2sc(-c3ccc(C(F)(F)F)cc3)nc2C)ccc1OCC(=O)O (stereo not drawn) ... 8.68
2) Cc1cc(SC(c2sc(-c3ccc(C(F)(F)F)cc3)nc2C)C(c2ccccc2)c2ccccc2)ccc1OCC(=O)O (stereo not drawn) ... 6.28
3) Cc1cc(SC(Cc2ccc([N+](=O)[O-])cc2)c2sc(-c3ccc(C(F)(F)F)cc3)nc2C)ccc1OCC(=O)O (stereo not drawn) ... 7.22
4) Cc1cc(SC(CC2CC2)c2sc(-c3ccc(C(F)(F)F)cc3)nc2C)ccc1OCC(=O)O (stereo not drawn) ... 8.96
5) Cc1cc(SC(Cc2cc(F)ccc2F)c2sc(-c3ccc(C(F)(F)F)cc3)nc2C)ccc1OCC(=O)O (stereo not drawn) ... 7.78
6) Cc1cc(SC(Cc2c(Cl)cccc2Cl)c2sc(-c3ccc(C(F)(F)F)cc3)nc2C)ccc1OCC(=O)O (stereo not drawn) ... 8.55
7) Cc1cc(SC(CC(C)C)c2sc(-c3ccc(C(F)(F)F)cc3)nc2C)ccc1OCC(=O)O (stereo not drawn) ... 8.96
8) Cc1cc(SC(Cc2cccc3ccccc23)c2sc(-c3ccc(C(F)(F)F)cc3)nc2C)ccc1OCC(=O)O (stereo not drawn) ... 6.31
